- EXPERIMENTAL_DETAILS: M. tuberculosis H37Rv growth inhibitors, H37Rv strain (AID 1626);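 note: bacteria incubated seven days before Alamar blue readout; 0% = bacteria only wells and 100% = bacteria with antibiotic wells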
- ASSAY_CONTEXT: active compounds read high, concentration not given here
In all, about 220,000 compounds went through this assay and about 2,000 (0.91%) were called active. Roughly 2% stayed inconclusive and do not appear here. Not all results are given here. Results with a measured potency or affinity are listed apart.
Readings of inhibition for the listed compounds
READOUT_LABEL: inhibition (%)

>>> endpoint_value("O=C(Oc1ccccc1)c1c(Cl)cccc1P(=O)(O)O")
-3.52
>>> endpoint_value("COc1cc(/C=C/C(=O)c2ccc(C)cc2)ccc1OCC#N")
8.8
>>> endpoint_value("COc1cccc(OCCNC(=O)c2cccc(OC)c2)c1")
4.61
>>> endpoint_value("CN(C)CCCNc1ncc(C(F)(F)F)cc1Cl")
4.38
>>> endpoint_value("Nc1nc(Nc2ccccc2)sc1C(=O)c1ccccc1")
36.1
>>> endpoint_value("COc1cccc(-c2nc(-c3ccc4c(c3)NC(=O)CO4)cs2)c1")
22.4
>>> endpoint_value("CNC(=S)Nn1cnc2ccccc21")
0.16
>>> endpoint_value("Cc1cc2c(s1)CCCCC(=O)N2")
-2.34
>>> endpoint_value("O=S(=O)(c1ccccc1Br)N1CCC(O)(c2cccnc2)CC1")
-4.98
>>> endpoint_value("Nc1nccc(/C=C/c2c(F)cccc2Cl)n1")
0.04
>>> endpoint_value("COc1ccccc1Nc1nc(-c2ccc3c(c2)NC(=O)CO3)cs1")
-3.16
>>> endpoint_value("COc1ccc(NC(=O)c2c(F)c(F)c(F)c(F)c2F)cc1Cl")
0.77
>>> endpoint_value("Cc1cc(Nc2ccc(C)c(Br)c2)n2nc(C)nc2n1")
-3.51
>>> endpoint_value("O=C(NCCOc1ccccc1)c1cc(C(=O)NCCOc2ccccc2)cc([N+](=O)[O-])c1")
15.8
>>> endpoint_value("O=C(CCc1ccccc1)N1N=C(c2ccncc2)CC1(O)C(F)(F)F (stereo not drawn)")
-7.97
>>> endpoint_value("COc1cc(/C=C/C(=O)c2ccc(O)cc2)ccc1OCC#N")
17.5
>>> endpoint_value("COc1ccc(COC(=O)Nc2cc3c(C(F)(F)F)nn(C)c3s2)cc1")
0.73
>>> endpoint_value("Fc1cccc(F)c1/C=C/c1ccc2ccccc2n1")
7.53
